All values here come from PubChem BioAssay AID624167.

molecular target: UniProt:Q6IN02; assay: Peg3 promoter luciferase inhibitors, potency, dose response, cell-based, HeLa, CREF/GAPDH counter-screen panel (AID 624167); conditions: HeLa PEG-Prom luciferase reporter, overnight, CREF/GAPDH counter-screens, mean of runs
The source made the active and inactive calls.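 Rule for the calls: active = mean IC50 for reducing PEG3 promoter reporter signal at or below a set limit, with IC50 above the limit in both counter screens; inactive = the rest, including counter screen hits.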
Select the matching outcome among t for active, f for inactive

Use the examples below as a reference point.
compound | classification
O=C(NC(c1ccc(F)cc1)c1ccc2ccccc2n1)C1CCN(Cc2cccc(C(F)(F)F)c2)CC1 (stereo not given) | t
CCCCN(C)CCNC(=O)c1cc(-c2cccnc2)nc2ccc(S(=O)(=O)N3CCC(C)CC3)cc12 | t
CC(=O)Nc1cccc(-c2ccnc3c2CC(C)(C(=O)Nc2cccc(C(F)(F)F)c2)O3)c1 (stereo not given) | f
CCN1CCN(C(c2ccc(C(F)(F)F)cc2)c2ccc3cccnc3c2O)CC1 (stereo not given) | t
Cc1ccc(/C=C2\SC(=S)N(CCCC(=O)NNC(=O)c3ccccc3O)C2=O)cc1 | t

Incoming: In this assay, the call recorded for Cc1cccc(CN2C(=O)/C(=C\c3ccc(C(=O)NCCN4CCOCC4)cc3)Sc3ccccc32)c1 was what?
Outgoing: f

Incoming: Tell me the recorded outcome of this test for CCCN(CC(=O)Nc1cc(Cl)cc(Cl)c1)CC(=O)Nc1ccc(F)c(F)c1F .
Outgoing: f

Incoming: Dear all, I need the recorded test outcome for CN(C)c1ccc(N=Nc2nc3ccccc3n2C)cc1 , thank you.
Outgoing: f

Incoming: Returns: the outcome recorded for C/C(=N\NC(=O)c1n[nH]c2c1CCC2)c1cccs1 in this assay.
Outgoing: t

Incoming: Test call for this compound, please: COc1cc(/C=C/C(=O)N2CCC=CC2=O)cc(OC)c1OC
Outgoing: t

----------
Attribute: pIC50
test system: Rat fibroblasts (CREF); experiment: Peg3 promoter luciferase inhibitors, potency, dose response, cell-based, HeLa, CREF/GAPDH counter-screen panel (AID 624167); settings: CREF/GAPDH counter-screens, run 1, dose range 1, individual replicate IC50 per panel
// scale note: pIC50 = -log10(conc_M); give the bare number

A selection of reference data follows.
chemical structure | observed result
O=C(Nc1cc(S(=O)(=O)N2CCOCC2)ccc1Cl)c1cc([N+](=O)[O-])ccc1Cl | 4.50
O=C(/C=C/c1ccccc1)Nc1cccc(C(=O)O)c1 | 5.40

// moving on: another record for pIC50
The molecule listed as COc1cccc2nc3c(C(=O)NCCN(C)C)cccc3cc12 has a reported pIC50 of 4.92

----------
biological target: PEG-3 (UniProt Q6IN02); experiment: Peg3 promoter luciferase inhibitors, potency, dose response, cell-based, HeLa, CREF/GAPDH counter-screen panel (AID 624167); conditions: HeLa PEG-Prom luciferase reporter, overnight, CREF/GAPDH counter-screens, mean of runs
Sequence (Q6IN02 whole entry, looked up): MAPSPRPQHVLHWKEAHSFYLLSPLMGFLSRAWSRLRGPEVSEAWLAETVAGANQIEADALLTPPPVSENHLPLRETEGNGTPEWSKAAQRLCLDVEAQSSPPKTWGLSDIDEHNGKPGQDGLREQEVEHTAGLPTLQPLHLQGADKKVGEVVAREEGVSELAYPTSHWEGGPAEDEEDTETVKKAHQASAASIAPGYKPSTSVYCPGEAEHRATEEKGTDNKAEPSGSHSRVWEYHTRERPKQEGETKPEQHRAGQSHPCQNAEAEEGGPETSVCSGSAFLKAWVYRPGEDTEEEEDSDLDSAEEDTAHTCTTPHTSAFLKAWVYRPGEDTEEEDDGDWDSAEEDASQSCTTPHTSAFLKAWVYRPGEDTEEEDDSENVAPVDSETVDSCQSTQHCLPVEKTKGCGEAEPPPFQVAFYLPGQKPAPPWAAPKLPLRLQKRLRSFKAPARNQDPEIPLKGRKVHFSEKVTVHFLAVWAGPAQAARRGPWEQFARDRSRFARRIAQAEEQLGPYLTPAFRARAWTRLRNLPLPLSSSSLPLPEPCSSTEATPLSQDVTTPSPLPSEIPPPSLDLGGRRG
Calls of active or inactive are those of the source.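 How the source made its calls: active means mean IC50 for reducing PEG3 promoter reporter signal at or below a set limit, with IC50 above the limit in both counter screens; inactive means the rest, including counter screen hits.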
measured endpoint: IC50

Observe how each entry below is paired with its result.
molecule | IC50
O=C(Nc1nc2cc3c(cc2s1)OCO3)C1=COCCO1 | 1.97 µM
CCCCC(=O)NC(c1ccc(OC)cc1)c1ccc2cccnc2c1O (stereo not given) | 8.02 µM
CN=c1scc(-c2cccs2)n1/N=C/c1ccccc1O | inactive
CCc1ccc(/C=C2\SC(=S)N(CCCC(=O)Nc3cc(C)on3)C2=O)cc1 | 3.46 µM
COc1ccccc1CN(C)C(=O)c1cc(-c2cccs2)nc2ccccc12 | 13.5 µM

IC50 reading for CCCN1C/C(=C/c2cccc([N+](=O)[O-])c2)C(=O)/C(=C/c2cccc([N+](=O)[O-])c2)C1 : inactive

Quick note, IC50 for COc1ccc(Nc2ncnc3ccc(Br)cc23)c(OC)c1 landed at 0.27 µM

In plain terms, O=[N+]([O-])c1ccc(-c2nc(Nc3cccc(O)c3)c3ccccc3n2)cc1 has a documented IC50 of 12.9 µM

Quick note, IC50 for COc1ccc(-c2nc(-c3ccccn3)no2)cc1 landed at 0.552 µM

Value of measured IC50 for the entry CC(=O)OC(C)(C)/C=C/C(=O)C(C)(O)C1[C@H](O)C[C@@]2(C)C3CC=C4C(CC[C@@H](O)C4(C)C)[C@]3(CO)C(=O)C[C@]12C (stereo not given in full) : inactive
